Biological target: Amine oxidase [flavin-containing] B (Homo sapiens)
Sequence (P27338 whole entry): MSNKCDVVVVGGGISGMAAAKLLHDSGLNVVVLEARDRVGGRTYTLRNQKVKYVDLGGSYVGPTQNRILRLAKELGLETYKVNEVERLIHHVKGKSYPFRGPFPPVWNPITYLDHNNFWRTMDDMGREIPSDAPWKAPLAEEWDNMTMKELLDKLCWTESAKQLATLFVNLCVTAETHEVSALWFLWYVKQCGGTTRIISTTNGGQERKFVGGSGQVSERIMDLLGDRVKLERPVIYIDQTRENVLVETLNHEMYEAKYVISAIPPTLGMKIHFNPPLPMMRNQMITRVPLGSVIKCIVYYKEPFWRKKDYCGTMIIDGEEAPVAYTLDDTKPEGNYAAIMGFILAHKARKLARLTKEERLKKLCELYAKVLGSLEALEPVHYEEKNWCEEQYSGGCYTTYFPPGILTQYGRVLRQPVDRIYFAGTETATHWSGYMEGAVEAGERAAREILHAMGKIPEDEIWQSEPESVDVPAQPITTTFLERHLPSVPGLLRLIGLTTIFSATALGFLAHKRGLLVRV
Assay: Inhibition of human recombinant MAO-B expressed in baculovirus infected BTI cells using luciferin derived luminogenic substrate measured after 20 mins by luminescence assay
pIC50: −log10 of the molar value.
parameter: pIC50

| smiles_repr | tested_system | pIC50 |
| --- | --- | --- |
| COc1cc(/C=C/C(=O)Nc2ccccc2COc2ccc(OC3CCNCC3)cc2)ccc1O | Amine oxidase [flavin-containing] B (Homo sapiens) | < 4.30 |

From here, focus on the item given below.
Q: Report the value of pIC50 obtained on Amine oxidase [flavin-containing] B (Homo sapiens) for "O=C(/C=C/c1ccc(O)cc1)Nc1cccc(OCC2CCNCC2)c1" .
Result: < 4.30

* * *

Target: Amine oxidase [flavin-containing] A (Homo sapiens, UniProt P21397)
Sequence (P21397 whole entry): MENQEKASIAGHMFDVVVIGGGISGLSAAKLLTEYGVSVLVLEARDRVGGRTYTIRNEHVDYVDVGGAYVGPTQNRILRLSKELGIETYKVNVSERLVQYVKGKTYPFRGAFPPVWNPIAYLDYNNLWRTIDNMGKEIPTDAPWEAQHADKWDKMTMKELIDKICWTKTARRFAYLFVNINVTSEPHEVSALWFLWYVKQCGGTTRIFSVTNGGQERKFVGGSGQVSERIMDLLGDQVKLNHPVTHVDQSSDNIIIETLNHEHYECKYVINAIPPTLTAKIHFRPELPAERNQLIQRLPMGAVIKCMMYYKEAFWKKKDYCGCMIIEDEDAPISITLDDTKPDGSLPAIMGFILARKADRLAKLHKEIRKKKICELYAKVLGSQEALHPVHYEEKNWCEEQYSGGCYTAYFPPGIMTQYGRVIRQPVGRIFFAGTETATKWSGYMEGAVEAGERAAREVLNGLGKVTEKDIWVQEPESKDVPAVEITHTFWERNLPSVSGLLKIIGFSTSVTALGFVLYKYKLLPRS
Assay: Inhibition of human recombinant MAO-A expressed in baculovirus infected BTI cells using luciferin derived luminogenic substrate measured after 20 mins by luminescence assay
pIC50: −log10 of the molar value.
parameter: pIC50

| smiles_repr | pIC50 |
| --- | --- |
| COc1cc(/C=C/C(=O)Nc2ccccc2COc2ccc(OC3CCNCC3)cc2)ccc1O | < 4.30 |

Q: Return the recorded pIC50 value; entry: "O=C(/C=C/c1ccc(O)cc1)Nc1cccc(OCC2CCNCC2)c1"
Result: < 4.30
